B1: RAD51 (parent)
chain: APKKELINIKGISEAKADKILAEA

- Variants of: B1
- TEST: protein stability index of a GFP-peptide fusion (GPS, HEK-293T) (PSI 1-6); higher = more stable;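 also: lentivirally expressed fusions sorted by FACS into six bins by GFP to DsRed ratio, PSI derived from sequencing read proportions per bin multiplied by bin number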
- TEST PARAMETERS: c terminus: a fixed tail appended
METRIC: protein stability index

SEQ TEXT | MEASUREMENT
APKKELHNIKGISEAKADKILAEA | 5.01
APKKELINIKGISEAKMDKILAEA | 4.43
APKKELINIKGISEAKASKILAEA | 3.53
APKKELINIKGISEAKAHKILAEA | 4.29
APKKELINIKGISEAKADKILDEA | 5.38
APKKELINIKHISEAKADKILAEA | 4.8
APKKELINIKGITEAKADKILAEA | 5.02
